Values from PubChem BioAssay (NCI)

system: SK-OV-3 ovarian; experiment: NCI-60 one-dose screen, 48 h (100 = growth as untreated, 0 = no growth, -100 = all killed); conditions: 10 µM unless noted
Compounds without any hit were thinned out: in the full panel of roughly 83,000, 20% have a hit.
Each entry gets false if its growth stays under 50%, and true if its growth is 50% or above.

A selection of reference data follows.
[
  {
    "COMPOUND": "OC1CSSC1Cn1cnc2c(Nc3ccc(F)c(Cl)c3)ncnc21 (stereo not given)",
    "CLASSIFICATION": "true"
  },
  {
    "COMPOUND": "O=C1C(Nc2ccc(Br)cc2)=C(I)C(=O)c2ncccc21",
    "CLASSIFICATION": "true"
  },
  {
    "COMPOUND": "CCOC(=O)c1c2c(n3ccc(NC(=O)CCN4CCCC4)cc13)C(=O)c1ncccc1C2=O",
    "CLASSIFICATION": "true"
  }
]

Check this compound for growth at or above 50%: CCN1C(=O)N(CC)C2C1NN=c1s/c(=C\c3ccc([N+](=O)[O-])cc3)c(=O)n12 (stereo not given) false
